# assayOverview: Biodistribution in PC-3 tumor-bearing CB17-SCID mice
# Type: in vivo
# runParameters: CB17-SCID, mouse, muscle, intravenous, 3.62 mg/kg, total radioactivity, 24 h after injection, coinjection of natLu-RM2 3.62 mg/kg, n = 3; read-out: Biodistribution, Muscle, competition study
measurementType: tissue uptake at 24 h (%ID/g)
Report as a plain number; the unit %ID/g is understood.

CC(C)C[C@H](NC(=O)C[C@H](O)[C@H](CC(C)C)NC(=O)[C@H](Cc1c[nH]cn1)NC(=O)CNC(=O)[C@@H](NC(=O)[C@H](C)NC(=O)[C@](C)(Cc1c[nH]c2ccccc12)NC(=O)[C@H](CCC(N)=O)NC(=O)[C@@H](Cc1ccccc1)NC(=O)CN1CCC(NC(=O)CN2CCN(CC(=O)O)CCN(CC(=O)O)CCN(CC(=O)O)CC2)CC1)C(C)C)C(N)=O [^177Lu-AMTG, ^177Lu-α-Me-L-Trp^8-RM2, metal not drawn]	0.003

Please find the next compound below.
Could you share which tissue uptake at 24 h value was measured for CC(C)C[C@H](NC(=O)C[C@H](O)[C@H](CC(C)C)NC(=O)[C@H](Cc1c[nH]cn1)NC(=O)CNC(=O)[C@@H](NC(=O)[C@H](C)NC(=O)[C@](C)(Cc1c[nH]c2ccccc12)NC(=O)[C@H](CCC(N)=O)NC(=O)[C@@H](Cc1ccccc1)NC(=O)CN1CCC(NC(=O)CCC(C(=O)O)N2CCN(CC(=O)O)CCN(CC(=O)O)CCN(CC(=O)O)CC2)CC1)C(C)C)C(N)=O (stereo partly drawn) [^177Lu-AMTG2, ^177Lu-DOTAGA-α-Me-L-Trp^8-RM2, metal not drawn] ?
0.003
